All values here come from patent US20180036441A1.

target-or-system: T1, MUC1-SEA-His protein (UniProt P15941 1039-1148, limits assumed)
T1 construct: domain: SEA; Recombinant antigen used for ELISA coating and as Biacore analyte; also called MUC-SEA-His; antigen protein; not shown: His tag
T1 sequence (looked up): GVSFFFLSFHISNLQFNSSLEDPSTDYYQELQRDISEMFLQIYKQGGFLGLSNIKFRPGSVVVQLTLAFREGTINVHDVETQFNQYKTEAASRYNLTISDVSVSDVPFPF
experimental-protocol: SPR Biacore T200, antibody captured, antigen as analyte
Consider the following binders and their measured koff readings.
Could you give me the number in s⁻¹? Just the number is fine.

Example entries and their recorded answers appear below.
VH5 + VL2 (antibody, V domains shown, Humanized IgG expressed in HEK293; also called humanized antibody VH5+VL2) VH: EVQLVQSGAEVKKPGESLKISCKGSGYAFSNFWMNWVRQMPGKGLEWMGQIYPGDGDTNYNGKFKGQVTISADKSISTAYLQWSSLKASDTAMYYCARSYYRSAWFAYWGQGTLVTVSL VL: EIVMTQSPATLSVSPGERATLSCRASQSIGTSIHWYQQKPGQAPRLLIYYASESISGIPARFSGSGSGTEFTLTISSLQSEDFAVYYCQQSNNWPLTFGGGTKVEIK | 0.0228
VH4 + VL3 (antibody, V domains shown, Humanized IgG expressed in HEK293; also called humanized antibody VH4+VL3) VH: QVQLVQSGAEVKKPGATVKISCKVSGYAFSNFWMNWVQQAPGKGLEWMGQIYPGDGDTNYNGKFKGRVTITADTSTDTAYMELSSLRSEDTAVYYCARSYYRSAWFAYWGQGTLVTVSR VL: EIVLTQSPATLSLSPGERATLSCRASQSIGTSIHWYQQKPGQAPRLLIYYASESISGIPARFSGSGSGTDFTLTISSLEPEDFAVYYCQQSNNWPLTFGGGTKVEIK | 0.0237

Okay, now this binder:
Fill in the blank: the reported koff of VH2 + VL5 (antibody, V domains shown, Humanized IgG expressed in HEK293; also called humanized antibody VH2+VL5) VH: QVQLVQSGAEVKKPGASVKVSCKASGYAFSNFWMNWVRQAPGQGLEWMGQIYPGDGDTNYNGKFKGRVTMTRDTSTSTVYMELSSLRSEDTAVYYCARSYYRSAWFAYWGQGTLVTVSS VL: DIVMTQSPSLLSASTGDRVTISCRASQSIGTSIHWYQQKPGKAPELLIYYASESISGVPSRFSGSGSGTDFTLTISCLQSEDFATYYCQQSNNWPLTFGQGTKVEIK is ____.
0.0193
